Below, each entry is listed alongside its reported % binding retained in competition with Reference-Fab.
# TARGET UNDER TEST: T1, Human soluble IL6-R (human, UniProt P08887 20-358)
# T1 construct: Bought soluble receptor; biotinylated in some Alphascreen assays; also called sIL6-R; hIL-6R
# T1 sequence (looked up): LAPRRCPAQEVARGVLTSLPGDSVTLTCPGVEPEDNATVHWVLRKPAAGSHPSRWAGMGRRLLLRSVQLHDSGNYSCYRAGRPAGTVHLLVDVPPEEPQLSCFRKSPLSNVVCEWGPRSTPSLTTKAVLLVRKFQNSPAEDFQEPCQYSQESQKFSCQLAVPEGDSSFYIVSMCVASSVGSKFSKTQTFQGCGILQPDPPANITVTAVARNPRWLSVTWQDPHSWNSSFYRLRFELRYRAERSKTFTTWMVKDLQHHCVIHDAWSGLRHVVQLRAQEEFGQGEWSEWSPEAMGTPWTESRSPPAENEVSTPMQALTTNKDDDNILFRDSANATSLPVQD
# ASSAY NOTES: Alphascreen, 100 nM Nanobody; competitor Reference-Fab on beads
MEASUREMENT LABEL: % binding retained in competition with Reference-Fab (%)

BINDER	VALUE MEASURED
IL6R06 (VHH, also called PMP32E2; PMP 32 E2) VHH: EVQLVESGGGLVQAGGSLRLSCAASGNIFDDNTMGWTWNRQPPGKQRELVAIIATDGSTNYADSVKGRFTISRDNAKNTVYLQMNSLKPEDTAVYYCNLFSLRLGRDYWGQGTQVTVSS	36
IL6R11 (VHH, also called PMP35E11; PMP 35 E11) VHH: EVQLVESGGGLVQAGGSLRLSCAASGFTFDDYAIGWFRQAPGKEHEGVSCISSSDGSTYYADSVKGRFTISSDNAKNTVYLQMNSLKPEDTAVYYCAAERDVPARSLCGSYYWYDYRGQGTQVTVSS	40
IL6R03 (VHH, also called PMP31A4; PMP 31 A4) VHH: EVQLVESGGGLVQAGGSLRLSCAASGSIFKVNAMGWYRQAPGKQRELVAGIISGGSTNYADSVKGRLTISRDNAKNTVYLQMNSLKPEDTAVYYCSFVTTNSDYDLGRDYWGQGTQVTVSS	5
IL6R01 (VHH, also called PMP28E11; PMP 28 E11) VHH: EVQLVESGGGFVQAGGSLRLSCIASGDNFSINRMGWYRQALGKQRELVAIITNHGSTNYADAVKGRFTISRDYAKNTVYLQMNGLKPDDTAVYYCNAYISEVGTWRDDYWGQGIQVTVSS	49
IL6R07 (VHH, also called PMP33A3; PMP 33 A3) VHH: EVQLVESGGGLVQPGGSLRLSCAASGFTLDYGAIGWFRQAPGKEREGVSCISSSTGSTYYADSVKGRFTISRDNGKNTVYLQMNSLKPEDTAVYYCAADKMWSPCLVAANEEALFEYDYWGQGTQVTVSS	80
IL6R02 (VHH, also called PMP30C11; PMP 30 C11) VHH: EVQLVESGGGLVQAGGSLRLSCAASGRTFSSYDMGWYRQAPGKEREFVAVISRSGSSTYYADSVKGRFTISRDNAKNTVYLQMNSLKPEDTAIYYCKAEVVAGDYDYWGQGTQVTVSS	86
IL6R09 (VHH, also called PMP34G9; PMP 34 G9) VHH: EVQLVESGGGLVQAGGSLRLSCAASGRTSSSYDMTWYRQVPGKEREFVAVISWSGGSTYYADSVKGRFTISRDNAKNTVYLQMNSLKPEDTAIYYCNAYTGGGDDYWGQGTQVTVSS	62
IL6R13 (VHH, also called PMP35H4; PMP 35 H4) VHH: EVQLVESGGGLVQPGGSLRLSCAASGFTFDDYGMSWVRQAPGRATEWVSAISWNGNNTYYTESMKGRFTISRDNAKNTVYLQMNSLKPEDTAVYYCVKGSTAIVGVPPTYPDEYDYWGQGTQVTVSS	25

The reported numbers originate from patent US20140221623A1.
